# target: human FAAH (Homo sapiens)
# Construct: made in house; host or cells: E. coli
# Sequence (O00519 whole entry): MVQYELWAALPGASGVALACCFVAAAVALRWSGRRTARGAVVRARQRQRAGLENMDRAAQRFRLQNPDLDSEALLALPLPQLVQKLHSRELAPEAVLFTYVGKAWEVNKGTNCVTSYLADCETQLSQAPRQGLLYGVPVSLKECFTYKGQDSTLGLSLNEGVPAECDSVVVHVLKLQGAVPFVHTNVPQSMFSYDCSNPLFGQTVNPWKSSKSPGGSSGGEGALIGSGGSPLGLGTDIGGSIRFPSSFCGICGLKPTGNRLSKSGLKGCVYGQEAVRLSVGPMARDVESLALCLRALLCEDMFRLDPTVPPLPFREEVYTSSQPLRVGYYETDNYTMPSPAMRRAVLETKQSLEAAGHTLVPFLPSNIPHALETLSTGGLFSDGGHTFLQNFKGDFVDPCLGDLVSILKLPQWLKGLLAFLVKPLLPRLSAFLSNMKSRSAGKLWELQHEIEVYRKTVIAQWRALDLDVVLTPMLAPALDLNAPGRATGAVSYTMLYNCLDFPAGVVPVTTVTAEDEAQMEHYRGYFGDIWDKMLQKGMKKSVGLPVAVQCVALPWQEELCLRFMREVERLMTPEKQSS
# experiment_summary: FAAH assay, human FAAH enzyme inactivation (kinact/Ki)
# Type: biochemical
# experimental_conditions: in vitro, oleamide 50 μM, 30° C., pH 7.4
# Procedure: The FAAH assay was carried out in 384-well clear polystyrene plates (Evergreen Scientific) in a total volume of 50 μl per well in a manner similar to that described by Mileni et al., Proc. Nat. Acad. Sci. 2008, 105, 12820-12824. All percents are by volume. […] The reactions were incubated at 30° C. and the absorbance at 340 nm was collected over a period of 90 min with readings taken in 30-second intervals using SpectraMax Plus^384 Microplate Spectrophotometer (Molecular Devices, Sunnyvale, Calif.). […]
readout: hFAAH kinact/Ki (M⁻¹ s⁻¹)
Answer in M⁻¹ s⁻¹, number only, no unit symbol.

For Cn1nnnc1NC(=O)N1CCC2(CC1)CC(c1cccc(C(F)(F)F)c1)CO2 (single isomer, unassigned) the molecule record lists hFAAH kinact/Ki as 3760

---

# target: human FAAH (Homo sapiens)
# Construct: made in house; host or cells: E. coli
# experiment_summary: FAAH assay, human FAAH enzyme inactivation (kinact/Ki)
# Assay type: biochemical
# experimental_conditions: pH 7.4, in vitro, oleamide 50 μM, 30° C., read-out: hFAAH kinact/Ki
# Description: The FAAH assay was carried out in 384-well clear polystyrene plates (Evergreen Scientific) in a total volume of 50 μl per well in a manner similar to that described by Mileni et al., Proc. Nat. Acad. Sci. 2008, 105, 12820-12824. All percents are by volume. […] The reactions were incubated at 30° C. and the absorbance at 340 nm was collected over a period of 90 min with readings taken in 30-second intervals using SpectraMax Plus^384 Microplate Spectrophotometer (Molecular Devices, Sunnyvale, Calif.). […]
Each item that follows carries a reported kinact/KI.
Return type: number; implicit unit M⁻¹ s⁻¹.

Reading of kinact/KI for O=C(Nc1cccnn1)N1CCC2(CC1)CC(c1cccc(Oc3ccc(C(F)(F)F)cn3)c1)CO2 (racemic) with human FAAH (Homo sapiens): 3130

// returns kinact/KI for Cc1noc(NC(=O)N2CCC3(CC2)CC(c2ccc(OCc4cccc(Cl)c4)c(Cl)c2)CO3)c1C (single isomer, unassigned) [Example 45] with human FAAH (Homo sapiens); value = 6240

Tested on human FAAH (Homo sapiens): Cn1nnnc1NC(=O)N1CCC2(CC1)C[C@H](c1ccc(OCc3cccc(F)c3)cc1)CO2 . Observed kinact/KI: 28400

// kinact/KI (human FAAH (Homo sapiens)) for Cc1noc(NC(=O)N2CCC3(CC2)C[C@H](c2cccc(-c4ccc(OC(F)(F)F)cc4)c2)CO3)c1C = 1490

Query Cc1noc(NC(=O)N2CCC3(CC2)C[C@@H](c2cccc(-c4ccc(F)c(F)c4)c2)CO3)c1C on human FAAH (Homo sapiens); kinact/KI returned: 1610

More entries:
Observed kinact/KI on human FAAH (Homo sapiens), entry Cc1noc(NC(=O)N2CCC3(CC2)CC(c2ccc(OCc4ccccc4)c(Cl)c2)CO3)c1C (racemic) , equals 3970

The measured kinact/KI that Cc1noc(NC(=O)N2CCC3(CC2)CC(c2noc(-c4ccc(OC(F)(F)F)cc4)n2)CO3)c1C (racemic) [Example 71] showed for human FAAH (Homo sapiens) is 2610

GET /values?item= Cc1noc(NC(=O)N2CCC3(CC2)CC(F)(c2cc(F)cc(Cl)c2)CO3)c1C (racemic) &system= human FAAH (Homo sapiens) returns kinact/KI: 871

---

# target: rat FAAH (Rattus norvegicus, UniProt P97612)
# Construct: made in house; host or cells: E. coli
# Sequence (P97612 1-579): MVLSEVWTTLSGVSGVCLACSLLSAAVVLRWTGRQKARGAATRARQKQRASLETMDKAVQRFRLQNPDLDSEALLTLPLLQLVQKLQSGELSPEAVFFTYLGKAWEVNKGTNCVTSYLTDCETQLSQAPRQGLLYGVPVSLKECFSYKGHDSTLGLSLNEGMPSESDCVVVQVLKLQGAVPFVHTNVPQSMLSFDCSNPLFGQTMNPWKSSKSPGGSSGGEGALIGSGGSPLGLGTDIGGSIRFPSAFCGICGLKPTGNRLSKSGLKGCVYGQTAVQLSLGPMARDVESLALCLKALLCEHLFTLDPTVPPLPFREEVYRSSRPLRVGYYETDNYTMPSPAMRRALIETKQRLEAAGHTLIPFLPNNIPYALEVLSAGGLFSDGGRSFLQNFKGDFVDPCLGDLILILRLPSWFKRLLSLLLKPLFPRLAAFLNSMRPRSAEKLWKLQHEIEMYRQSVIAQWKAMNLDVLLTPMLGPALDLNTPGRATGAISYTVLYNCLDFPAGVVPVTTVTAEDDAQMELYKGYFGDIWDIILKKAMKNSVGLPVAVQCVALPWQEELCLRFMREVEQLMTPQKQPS
# experiment_summary: FAAH assay, rat FAAH enzyme inactivation (kinact/Ki)
# Format: biochemical
# experimental_conditions: pH 7.4, in vitro, oleamide 50 μM, 30° C., read-out: rFAAH kinact/Ki
kinact/KI by entry:
Answer with a number only, understood to be in M⁻¹ s⁻¹.

Completed entries (count: 5):
Per the records, this molecule ( O=C(Nc1cccnn1)N1CCC2(CC1)CC(c1cccc(Oc3ccc(Cl)cn3)c1)CO2 (racemic) ) has kinact/KI equal to 3380

Lab note: Cc1noc(NC(=O)N2CCC3(CC2)CC(c2ccc(OCc4cccc(F)c4)cc2)CO3)c1C (racemic) gave kinact/KI of 3630

Looking up Cn1nnnc1NC(=O)N1CCC2(CC1)CC(c1cccc(C(F)(F)F)c1)CO2 (single isomer, unassigned) [Example 93] , I found its kinact/KI recorded as 2160

Recorded kinact/KI (molecule Cc1noc(NC(=O)N2CCC3(CC2)CC(c2ccc(OCc4ccc(Cl)cc4)cc2)CO3)c1C (racemic) ): 10900

Cc1noc(NC(=O)N2CCC3(CC2)C[C@@H](c2cccc(-c4ccc(F)cc4)c2)CO3)c1C has a reported kinact/KI of 2750

Next:
For this molecule ( Cc1noc(NC(=O)N2CCC3(CC2)C[C@H](c2ccc(OCc4ccc(F)c(F)c4)cc2)CO3)c1C ), measured kinact/KI is 17300

What the record says about O=C(Nc1cccnn1)N1CCC2(CC1)C[C@H](c1cccc(Oc3ccc(Cl)cn3)c1)CO2 : kinact/KI is 1020

---

# target: rat FAAH (Rattus norvegicus)
# Construct: made in house; host or cells: E. coli
# Sequence (P97612 1-579): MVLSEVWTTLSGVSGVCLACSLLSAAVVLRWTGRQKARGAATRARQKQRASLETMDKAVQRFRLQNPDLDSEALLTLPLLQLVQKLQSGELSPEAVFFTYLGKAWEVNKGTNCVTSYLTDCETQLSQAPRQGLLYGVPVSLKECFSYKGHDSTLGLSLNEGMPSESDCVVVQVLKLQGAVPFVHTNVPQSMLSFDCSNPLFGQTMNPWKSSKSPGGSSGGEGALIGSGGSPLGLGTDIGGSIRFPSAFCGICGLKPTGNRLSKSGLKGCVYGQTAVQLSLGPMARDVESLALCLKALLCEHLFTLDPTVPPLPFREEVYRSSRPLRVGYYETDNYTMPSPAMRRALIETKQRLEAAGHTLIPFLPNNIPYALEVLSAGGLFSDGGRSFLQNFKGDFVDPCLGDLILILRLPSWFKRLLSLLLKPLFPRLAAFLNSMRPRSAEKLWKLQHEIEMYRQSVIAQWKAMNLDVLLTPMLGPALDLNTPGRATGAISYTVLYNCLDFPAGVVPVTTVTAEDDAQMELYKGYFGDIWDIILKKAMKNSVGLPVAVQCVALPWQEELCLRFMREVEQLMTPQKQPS
# experiment_summary: FAAH assay, rat FAAH enzyme inactivation (kinact/Ki)
# Type: biochemical
# experimental_conditions: pH 7.4, in vitro, oleamide 50 μM, 30° C., read-out: rFAAH kinact/Ki
readout: kinact/KI (M⁻¹ s⁻¹)
Report only the number, with the unit M⁻¹ s⁻¹ understood.

// sample O=C(Nc1cccnc1)N1CCC2(CC1)C[C@@H](c1cccc(Oc3ccc(Br)cn3)c1)CO2 [Example 8] , its kinact/KI was 3520

Quick note, kinact/KI for Cn1nnnc1NC(=O)N1CCC2(CC1)CC(c1noc(-c3ccc(C(F)(F)F)cc3)n1)CO2 (single isomer, unassigned) [Example 82] landed at 1500

Quick note, kinact/KI for Cn1nnnc1NC(=O)N1CCC2(CC1)CC(c1noc(-c3ccc(OC(F)(F)F)cc3)n1)CO2 (single isomer, unassigned) [Example 84] landed at 1500

---
Query Cc1noc(NC(=O)N2CCC3(CC2)CC(c2ccc(OCc4ccccc4)c(Cl)c2)CO3)c1C (racemic) [Example 20] yields kinact/KI of 4390

// sample O=C(Nc1cccnc1)N1CCC2(CC1)C[C@H](c1cccc(Oc3ccc(Br)cn3)c1)CO2 [Example 7] , its kinact/KI was 526

Short answer for O=C(Nc1cccnc1)N1CCC2(CC1)CC(c1cccc(Oc3ccc(Br)cn3)c1)CO2 (racemic) [Example 6] : kinact/KI was 1750

Looking up Cc1noc(NC(=O)N2CCC3(CC2)C[C@@H](c2cccc(-c4ccc(Cl)cc4)c2)CO3)c1C [Example 62] , I see its kinact/KI listed as 2260

Each recorded value in this set is attributed to patent US20110230493A1.
